- Test system: CEM/VLB1000
- assayName: Cytotoxicity potentiation (alamar blue) of vinblastine in multidrug-resistant cells
- Assay type: cell-based
- studyConditions: midpoint of minimum and maximum cytotoxicity induced by 3-5 μg/mL vinblastine and compound, 48 h
Task for the reader: assign each of the following compounds its reported pEC50.
pEC50 is defined as minus the log10 of a concentration measured in mol/L.

Suppose we examine the compound CNc1ccc(-c2nc(-c3ccc(/C=C/C(=O)OC)cc3)[nH]c2-c2ccc(NC)cc2)cc1 ; what pEC50 value has been reported?
6.69

Lookup COC(=O)/C=C/c1csc(-c2nc(-c3ccc(N(C)C)cc3)c(-c3ccc(N(C)C)cc3)[nH]2)c1
6.49

Same question for CCCCN(CCCC)c1ccc(-c2[nH]c(-c3ccc(/C=C/C(=O)OC)cc3)nc2-c2ccc(NC)cc2)cc1 please.
5.72

CN(C)c1ccc(-c2nc(-c3ccc(/C=C/C(=O)OC(C)(C)C)cc3)[nH]c2-c2ccc(N(C)C)cc2)cc1 ?
6.23
